SYSTEM NAME: Amine oxidase [flavin-containing] A (Homo sapiens)
Sequence (P21397 whole entry): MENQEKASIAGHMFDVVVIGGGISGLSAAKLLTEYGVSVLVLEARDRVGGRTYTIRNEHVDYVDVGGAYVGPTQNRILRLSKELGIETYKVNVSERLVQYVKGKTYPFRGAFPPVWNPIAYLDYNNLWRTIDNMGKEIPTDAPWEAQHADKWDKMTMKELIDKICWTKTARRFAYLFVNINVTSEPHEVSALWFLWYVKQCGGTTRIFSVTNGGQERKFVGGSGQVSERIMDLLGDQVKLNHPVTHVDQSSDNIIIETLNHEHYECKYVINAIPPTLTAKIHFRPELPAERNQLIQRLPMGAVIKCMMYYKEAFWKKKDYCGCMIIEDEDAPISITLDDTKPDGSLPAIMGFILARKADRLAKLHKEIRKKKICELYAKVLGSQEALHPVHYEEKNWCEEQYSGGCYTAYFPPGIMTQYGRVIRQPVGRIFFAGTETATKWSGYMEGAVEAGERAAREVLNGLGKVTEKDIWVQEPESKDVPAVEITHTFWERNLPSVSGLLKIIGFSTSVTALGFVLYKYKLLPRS
EXPERIMENT: Inhibition of human recombinant MAO-A activity expressed in BTI-TN-5B1-4 insect cells at 100 uM using p-tyramine substrate by Amplex Red MAO assay
CONDITION DESCRIPTION: bti-tn-5b1-4, 100 µM
REPORTED METRIC: inhibition (INH)

INSERT INTO measurements (compound, result) VALUES
  ('CC(=O)N1N=C(c2ccc(C)cc2)OC1c1ccc(Cl)cc1Cl (stereo unspecified)', 'Not Active'),
  ('CC(=O)N1N=C(c2ccc(C)cc2)OC1c1ccccc1 (stereo unspecified)', 'Not Active'),
  ('CC(=O)N1N=C(c2ccncc2)OC1c1ccc(Cl)cc1 (stereo unspecified)', 'Not Active'),
  ('CC(=O)N1N=C(c2ccccc2)OC1c1ccc(Cl)cc1 (stereo unspecified)', 'Not Active'),
  ('CC(=O)N1N=C(c2ccc(Cl)cc2)O[C@H]1c1ccc(Cl)cc1', 'Not Active'),
  ('CC(=O)N1N=C(c2ccc(Cl)cc2)OC1c1ccc(Cl)cc1 (stereo in doubt; 4p)', 'Not Active'),
  ('CC(=O)N1N=C(c2ccc(C)cc2)OC1c1ccc(Cl)cc1 (stereo unspecified)', 'Not Active'),
  ('COc1ccc(C2OC(c3ccc(C)cc3)=NN2C(C)=O)cc1 (stereo unspecified)', 'Not Active'),
  ('CC(=O)N1N=C(c2ccccc2)OC1c1ccccc1 (stereo unspecified)', 'Not Active'),
  ('CC(=O)N1N=C(c2ccccc2)O[C@@H]1c1ccc(C)cc1', 'Not Active'),
  ('COc1ccc(C2OC(c3ccncc3)=NN2C(C)=O)cc1OC (stereo unspecified)', 'Not Active'),
  ('CC(=O)N1N=C(c2ccc(C)cc2)OC1c1ccc(C)cc1 (stereo unspecified)', 'Not Active'),
  ('COc1ccc(C2=NN(C(C)=O)C(c3ccc(Cl)cc3)O2)cc1 (stereo unspecified)', 'Not Active'),
  ('CC(=O)N1N=C(c2ccncc2)OC1c1ccc(C)cc1 (stereo unspecified)', 'Not Active'),
  ('CC(=O)N1N=C(c2ccccc2)OC1c1ccc(N(C)C)cc1 (stereo unspecified)', 'Not Active'),
  ('CC(=O)N1N=C(c2ccc(Br)cc2)O[C@@H]1c1ccc(Cl)cc1', 'Not Active'),
  ('CC(=O)N1N=C(c2ccccc2)O[C@H]1c1ccc(C)cc1', 'Not Active'),
  ('CC(=O)N1N=C(c2ccccc2)OC1c1ccc(F)cc1 (stereo unspecified)', 'Not Active'),
  ('CC(=O)N1N=C(c2ccc(Br)cc2)O[C@H]1c1ccc(Cl)cc1', 'Not Active'),
  ('CC(=O)N1N=C(c2ccncc2)OC1c1ccc(N(C)C)cc1 (stereo unspecified)', 'Not Active'),
  ('CC(=O)N1N=C(c2ccc(Br)cc2)OC1c1ccc(Cl)cc1 (stereo in doubt; 4s)', 'Not Active'),
  ('COc1ccc(C2OC(c3ccccc3)=NN2C(C)=O)cc1 (stereo unspecified)', 'Not Active'),
  ('CC(=O)N1N=C(c2ccc(C)cc2)OC1c1ccc(N(C)C)cc1 (stereo unspecified)', 'Not Active'),
  ('CC(=O)N1N=C(c2ccc([N+](=O)[O-])cc2)OC1c1ccc(Cl)cc1 (stereo unspecified)', 'Not Active'),
  ('CC(=O)N1N=C(c2ccncc2)OC1c1ccccc1 (stereo unspecified)', 'Not Active'),
  ('CC(=O)N1N=C(c2ccccc2)OC1c1ccc(C)cc1 (stereo in doubt; 4y)', 'Not Active'),
  ('CC(=O)N1N=C(c2ccncc2)OC1c1ccc(Cl)cc1Cl (stereo unspecified)', 'Not Active'),
  ('COc1ccc(C2OC(c3ccncc3)=NN2C(C)=O)cc1 (stereo unspecified)', 'Not Active'),
  ('COc1ccc(C2OC(c3ccc(C)cc3)=NN2C(C)=O)cc1OC (stereo unspecified)', 'Not Active'),
  ('CC(=O)N1N=C(c2ccccc2)OC1c1ccc([N+](=O)[O-])cc1 (stereo unspecified)', 'Not Active'),
  ('CC(=O)N1N=C(c2ccc(Cl)cc2)O[C@@H]1c1ccc(Cl)cc1', 'Not Active');
